target: HIV-1 reverse transcriptase (HIV-1) (UniProt P04585+P04585); assay: inhibition; conditions: almost no inhibition at 81 nM
pKi: −log10 of the molar value.
Readout: pKi

// query Item CCCCTGCAGGTGATTTTGCTCAAGTNNNNNNNNNNNNNNNNNNNNNNNNNNNNNNNNNNNAGTATCGCTAATCAGGCGGAT [R0 degenerate 35N ssDNA library] with HIV-1 reverse transcriptase (HIV-1) (UniProt P04585+P04585) - pKi?
// result < 5.52
